The reported measurements were obtained from the supplement of paper PMC6555819.

Test system: LXRb:RXRa (NR concentration 270 nM, RXRa partner concentration 90 nM)
Test: PBM binding z-score (relative to random genomic background probes); higher = stronger binding; sequences stand for … in GC…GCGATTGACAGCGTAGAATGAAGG
Just so you know, the groups by PBM binding z-score go like this: low bracket: < 0.8; middle bracket: ≥ 0.8 and < 4; high bracket: ≥ 4

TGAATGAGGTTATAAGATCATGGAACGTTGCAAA ... middle bracket
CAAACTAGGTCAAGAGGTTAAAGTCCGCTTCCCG ... middle bracket
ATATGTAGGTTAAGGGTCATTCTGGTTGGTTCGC ... high bracket
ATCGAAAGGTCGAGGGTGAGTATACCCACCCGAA ... middle bracket
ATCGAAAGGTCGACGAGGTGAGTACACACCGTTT ... middle bracket

Lookup: Sort `ACTTACGGGTCAACGAGGGTATAGCACGCGTATA` into one of the categories.
Found: middle bracket

Lookup: Sort `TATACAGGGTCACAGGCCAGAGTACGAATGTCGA` into one of the categories.
Found: high bracket

Lookup: State the class of the sequence shown: `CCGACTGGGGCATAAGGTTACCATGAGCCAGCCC`
Found: low bracket

Lookup: Consider `TCGAGTAGGTTACCAATGGGGTATTCAGCTTTCT` . To which PBM binding z-score class does it belong?
Found: middle bracket

Lookup: Which class does `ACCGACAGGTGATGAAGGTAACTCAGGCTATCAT` fall in?
Found: low bracket

Lookup: Please let me know in which category the item `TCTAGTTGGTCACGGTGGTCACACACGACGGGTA` belongs.
Found: low bracket

Lookup: Form: Item = `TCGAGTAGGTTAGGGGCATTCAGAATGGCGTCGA` ; Class = ?
Found: low bracket

Lookup: Class for `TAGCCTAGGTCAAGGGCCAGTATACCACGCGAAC` ?
Found: middle bracket

====

System: FXR:RXRa (NR concentration 270 nM, RXRa partner concentration 90 nM)
Experiment: PBM binding z-score (relative to random genomic background probes); higher = stronger binding; sequences stand for … in GC…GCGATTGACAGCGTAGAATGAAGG
Threshold rule: PBM binding z-score greater than or equal to 0.3 is 1; below that, -1.

Past entries and their recorded results:
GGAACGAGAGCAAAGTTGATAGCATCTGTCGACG ... -1
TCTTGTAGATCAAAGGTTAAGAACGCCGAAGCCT ... 1
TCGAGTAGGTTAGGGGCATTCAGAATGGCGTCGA ... 1
GCTAGCAGACCATTTGGGTCACTCAATGACGGGC ... -1
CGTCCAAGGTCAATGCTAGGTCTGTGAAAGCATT ... 1

Lookup: Dear colleague, could you confirm whether `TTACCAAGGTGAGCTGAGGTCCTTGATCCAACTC` has PBM binding z-score at or above 0.3?
Found: 1

====

Hi there, I'd appreciate the recorded PBM binding z-score for every entry that follows.
System: RXRa DBDmut IVT, anti-RXR (DBD mutation: RXRa K156A/R161A, NR concentration 90 nM)
Assay: PBM binding z-score (relative to random genomic background probes); higher = stronger binding; sequences stand for … in GC…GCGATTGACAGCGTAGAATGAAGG
Give bare numbers.

Field: example entries. Status: answers known.
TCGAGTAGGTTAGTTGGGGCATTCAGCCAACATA ... 0.0825
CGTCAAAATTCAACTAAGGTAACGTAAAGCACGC ... 0.407
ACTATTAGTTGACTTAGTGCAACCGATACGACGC ... 0.565
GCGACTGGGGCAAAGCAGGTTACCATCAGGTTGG ... -0.245

I would be grateful if you could provide PBM binding z-score for each of the following entries.
1. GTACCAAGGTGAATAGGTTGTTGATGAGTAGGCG
2. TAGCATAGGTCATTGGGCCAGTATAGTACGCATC
3. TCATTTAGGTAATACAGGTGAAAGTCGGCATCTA
4. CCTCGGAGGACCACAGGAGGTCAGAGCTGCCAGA
5. CTACCAAGGTGAACAAGCTCGTTGATTACTATTC
6. TCTTGTAGATCAAAAGAGGTTAAGAAAGTGCGCT
7. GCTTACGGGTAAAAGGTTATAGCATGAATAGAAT
8. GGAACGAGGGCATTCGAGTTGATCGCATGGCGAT

Found:
1. 0.247
2. 1.58
3. 1.96
4. -0.446
5. 0.373
6. 0.343
7. 0.423
8. 3.18

Provide PBM binding z-score for all items below, preserving their order.
1. TTACCAAGGTGAGCTGAGTTCGTTGATCCAACTC
2. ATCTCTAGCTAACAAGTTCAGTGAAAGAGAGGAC
3. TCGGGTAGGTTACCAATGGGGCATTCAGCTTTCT
4. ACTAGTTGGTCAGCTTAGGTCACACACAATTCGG
5. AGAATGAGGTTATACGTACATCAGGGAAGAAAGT

Found:
1: 0.458; 2: 0.511; 3: 0.101; 4: 0.83; 5: 1.73

====

System: RXRa homodimer (NR concentration 180 nM)
Assay: PBM binding z-score (relative to random genomic background probes); higher = stronger binding; sequences stand for … in GC…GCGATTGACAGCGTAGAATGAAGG
Field: PBM binding z-score. Provide a value for each of the sequences that follow.
One number for each entry.

For orientation, consider the following solved cases.
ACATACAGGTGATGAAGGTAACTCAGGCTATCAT ... 0.874
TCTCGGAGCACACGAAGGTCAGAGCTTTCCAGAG ... 1.7
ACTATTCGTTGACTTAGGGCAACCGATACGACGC ... 0.633
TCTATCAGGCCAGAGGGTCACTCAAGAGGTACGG ... 2.56
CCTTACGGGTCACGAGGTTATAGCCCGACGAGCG ... 6.74
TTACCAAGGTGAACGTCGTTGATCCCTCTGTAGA ... 1.19
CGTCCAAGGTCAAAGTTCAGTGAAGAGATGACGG ... 8.84
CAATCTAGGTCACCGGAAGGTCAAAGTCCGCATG ... 7.46
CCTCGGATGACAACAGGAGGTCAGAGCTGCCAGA ... 2.01
GCTTACGGGTCAAAGGTTAGAGCATGAATAGAAT ... 8.91

Hi there! I need PBM binding z-score for each item below, if you can.
1. CCGACTGGGCCATAAGGTTACCATAAGCCAGCCC
2. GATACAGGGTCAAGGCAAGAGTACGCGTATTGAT
3. ATATTTAGGTTAGCTGGGGTCATTCAGACTAGGC
4. CAAACTAGGTCAAAGGCCAAAGTCGAGCCAACCA

Found:
[0.767, 6.28, 5.09, 4.98]

====

Tested on: RARb:RXRa (NR concentration 270 nM, RXRa partner concentration 90 nM)
Assay: PBM binding z-score (relative to random genomic background probes); higher = stronger binding; sequences stand for … in GC…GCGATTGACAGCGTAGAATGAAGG
assay readout: PBM binding z-score

Use the examples below as a reference point.
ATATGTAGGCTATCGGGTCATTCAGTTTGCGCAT ... 1.72
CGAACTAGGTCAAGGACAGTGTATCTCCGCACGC ... 3.95
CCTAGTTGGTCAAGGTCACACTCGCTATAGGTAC ... 3.85
CAAACTAGGTCAAAGGTCAAAGGCGAGCCAACCA ... 5.86
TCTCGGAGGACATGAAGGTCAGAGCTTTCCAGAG ... 2.63

For each of the sequences below, state PBM binding z-score.
1. TTTACAGGGTCAAAGGCCAGAGTACGAATGTCGA
2. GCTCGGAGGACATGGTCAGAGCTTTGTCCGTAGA
3. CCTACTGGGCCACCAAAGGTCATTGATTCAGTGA

Found:
[4.52, 0.679, 4]

====

Answer each item with its documented PBM binding z-score.
Test system: PPARg:RXRa 270nM:90nM, anti-RXR (NR concentration 270 nM, RXRa partner concentration 90 nM)
Test: PBM binding z-score (relative to random genomic background probes); higher = stronger binding; sequences stand for … in GC…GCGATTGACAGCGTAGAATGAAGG
Answers are plain numbers.

Use these answered entries as a reference point.
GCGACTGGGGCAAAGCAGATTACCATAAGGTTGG ... 0.951
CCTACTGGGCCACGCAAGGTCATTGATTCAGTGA ... 3.26
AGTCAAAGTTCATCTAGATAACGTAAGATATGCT ... 6.12
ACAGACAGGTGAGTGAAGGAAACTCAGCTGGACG ... -0.724
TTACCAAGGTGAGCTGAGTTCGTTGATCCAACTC ... 0.146
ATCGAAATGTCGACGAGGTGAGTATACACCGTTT ... -0.108
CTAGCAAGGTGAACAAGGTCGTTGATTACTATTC ... 1.3
CGTCTAAGGTCAATGCTAGGTCAGTGAAAGCATT ... 5.68
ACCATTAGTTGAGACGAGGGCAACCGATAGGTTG ... -0.0707
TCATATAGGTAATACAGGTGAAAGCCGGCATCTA ... 2.68

Report PBM binding z-score for each item below.
1. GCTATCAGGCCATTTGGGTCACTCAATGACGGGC
2. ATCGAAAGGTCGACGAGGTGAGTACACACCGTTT
3. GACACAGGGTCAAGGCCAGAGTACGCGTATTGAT

Found:
[0.805, 3.38, 5.57]

For every item below, please supply its PBM binding z-score.
1. TCTCGGCGGACACGAAAGGTCAGAGCTCGACATC
2. ATCGAAAGGTCCAGGTGAGTATAGAGAAAGGGAA

Found:
1. 1.69
2. 0.503
